// data source = the supplement of paper PMC8617591

test system: Mycobacterium tuberculosis Erdman (autoluminescent); assay: GRinf, maximum normalised growth rate inhibition (three-drug combination) (unitless (-1 to 1)); higher = less effect (negative = killing); settings: in vitro model: standard 7H9 glycerol; time point: constant = terminal
# maps each entry to its GRinf
Response field accepts a number only; no unit should be typed.

MOLECULE: COc1nc2ccc(Br)cc2cc1[C@@H](c1ccccc1)[C@@](O)(CCN(C)C)c1cccc2ccccc12 [bedaquiline] + NNC(=O)c1ccncc1 [isoniazid] + CO[C@H]1/C=C/O[C@@]2(C)Oc3c(C)c(O)c4c(O)c(c(/C=N/N5CCN(C)CC5)c(O)c4c3C2=O)NC(=O)/C(C)=C\C=C\[C@H](C)[C@H](O)[C@@H](C)[C@@H](O)[C@@H](C)[C@H](OC(C)=O)[C@@H]1C [rifampicin]
EXPERIMENTAL_RESULT: -0.0733

Let us move to another entry and its GRinf.
For the molecule CC(C)/N=c1\cc2n(-c3ccc(Cl)cc3)c3ccccc3nc-2cc1Nc1ccc(Cl)cc1 [clofazimine] + NNC(=O)c1ccncc1 [isoniazid] + COc1c(N2C[C@@H]3CCCN[C@@H]3C2)c(F)cc2c(=O)c(C(=O)O)cn(C3CC3)c12 [moxifloxacin] , the measured GRinf on Mycobacterium tuberculosis Erdman (autoluminescent) was -0.209
